molecular target: delta-type opioid receptors (Rattus norvegicus); construct: Whole brains with cerebellum removed were homogenized in 100 volumes of Tris-HCl buffer; from tissue; host or cells: rat brain (without cerebellum), washed homogenate; test: displacement of [3H][p-Cl-Phe4]DPDPE in rat brain homogenate; assay type: binding; conditions: rat brain homogenate, 1 nM radioligand, 25° C., 40 min; read-out: IC50 (nM) ± S.E.E. [3H] p-Cl-DPDPE
Sequence (P33533 whole entry): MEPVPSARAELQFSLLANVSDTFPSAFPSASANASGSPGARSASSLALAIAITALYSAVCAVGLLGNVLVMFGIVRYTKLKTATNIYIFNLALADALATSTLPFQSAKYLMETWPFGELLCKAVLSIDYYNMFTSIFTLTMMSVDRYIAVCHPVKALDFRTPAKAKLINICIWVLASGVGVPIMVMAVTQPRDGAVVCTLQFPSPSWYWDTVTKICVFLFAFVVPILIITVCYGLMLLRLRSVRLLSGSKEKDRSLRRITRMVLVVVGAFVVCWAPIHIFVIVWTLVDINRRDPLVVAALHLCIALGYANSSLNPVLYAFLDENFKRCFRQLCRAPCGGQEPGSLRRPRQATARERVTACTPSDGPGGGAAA
Bridge positions count the residues as written; N and C are the ends. Square brackets hold non-standard residues; d marks the D form. Peptide text beside a SMILES is read from it. Phe(4-Br) = N[C@@H](Cc1ccc(Br)cc1)C(=O)O; Phe(4-F) = N[C@@H](Cc1ccc(F)cc1)C(=O)O; dPen = CC(C)(S)[C@@H](N)C(=O)O; dAbu = CC[C@@H](N)C(=O)O; Ac5c = NC1(C(=O)O)CCCC1; Abu = CC[C@H](N)C(=O)O
IC50 vs 20 nM: less than gives criterion met; not less than gives criterion not met.

Molecule | Assigned category
C[C@@H]1NC(=O)[C@H](NC(=O)[C@@H](N)Cc2ccc(O)cc2)C(C)(C)SSC(C)(C)[C@H](C(=O)O)NC(=O)[C@H](Cc2ccc(Br)cc2)NC1=O [[p-Br--Phe^4 ]DPADPE] (H-Y[dPen]A[Phe(4-Br)][dPen]-OH; disulfide 2-5) | criterion met
C[C@@H]1NC(=O)[C@H](NC(=O)[C@@H](N)Cc2ccc(O)cc2)C(C)(C)SSC(C)(C)[C@H](C(=O)O)NC(=O)[C@H](Cc2ccccc2)NC1=O [[L--Ala^3 ]DPDPE (DPADPE)] (H-Y[dPen]AF[dPen]-OH; disulfide 2-5) | criterion met
CC1(C)SSC(C)(C)[C@@H](NC(=O)[C@@H](N)Cc2ccc(O)cc2)C(=O)N[C@H](CO)C(=O)N[C@@H](Cc2ccccc2)C(=O)N[C@H]1C(=O)O [[D--Ser^3]DPDPE] (H-Y[dPen][dS]F[dPen]-OH; disulfide 2-5) | criterion not met

Task: Regarding CC[C@@H]1NC(=O)[C@H](NC(=O)[C@@H](N)Cc2ccc(O)cc2)C(C)(C)SSC(C)(C)[C@H](C(=O)O)NC(=O)[C@H](Cc2ccccc2)NC1=O [[L--Abu^3]DPDPE] (H-Y[dPen][Abu]F[dPen]-OH; disulfide 2-5) , kindly confirm whether its IC50 is beneath 20 nM.
Result: criterion not met

Task: Regarding CC[C@H]1NC(=O)[C@H](NC(=O)[C@@H](N)Cc2ccc(O)cc2)C(C)(C)SSC(C)(C)[C@H](C(=O)O)NC(=O)[C@H](Cc2ccccc2)NC1=O [[D--Abu^3]DPDPE] (H-Y[dPen][dAbu]F[dPen]-OH; disulfide 2-5) , kindly confirm whether its IC50 is beneath 20 nM.
Result: criterion not met

Task: Regarding C[C@@H]1NC(=O)[C@H](NC(=O)[C@@H](N)Cc2ccc(O)cc2)C(C)(C)SSC(C)(C)[C@H](C(=O)O)NC(=O)[C@H](Cc2ccc(F)cc2)NC1=O [[p-F--Phe^4 ]DPADPE] (H-Y[dPen]A[Phe(4-F)][dPen]-OH; disulfide 2-5) , kindly confirm whether its IC50 is beneath 20 nM.
Result: criterion met

Task: Regarding CC1(C)SSC(C)(C)[C@@H](NC(=O)[C@@H](N)Cc2ccc(O)cc2)C(=O)NC2(CCCC2)C(=O)N[C@@H](Cc2ccccc2)C(=O)N[C@H]1C(=O)O [[AC5 C^3]DPDPE] (H-Y[dPen][Ac5c]F[dPen]-OH; disulfide 2-5) , kindly confirm whether its IC50 is beneath 20 nM.
Result: criterion not met

Task: Regarding C[C@H]1NC(=O)[C@H](NC(=O)[C@@H](N)Cc2ccc(O)cc2)C(C)(C)SSC(C)(C)[C@H](C(=O)O)NC(=O)[C@H](Cc2ccccc2)NC1=O [[D--Ala^3]DPDPE] (H-Y[dPen][dA]F[dPen]-OH; disulfide 2-5) , kindly confirm whether its IC50 is beneath 20 nM.
Result: criterion not met
